SYSTEM: human sAC (Homo sapiens, UniProt Q96PN6)
Construct: made in house
Sequence (Q96PN6 1-469 limits assumed): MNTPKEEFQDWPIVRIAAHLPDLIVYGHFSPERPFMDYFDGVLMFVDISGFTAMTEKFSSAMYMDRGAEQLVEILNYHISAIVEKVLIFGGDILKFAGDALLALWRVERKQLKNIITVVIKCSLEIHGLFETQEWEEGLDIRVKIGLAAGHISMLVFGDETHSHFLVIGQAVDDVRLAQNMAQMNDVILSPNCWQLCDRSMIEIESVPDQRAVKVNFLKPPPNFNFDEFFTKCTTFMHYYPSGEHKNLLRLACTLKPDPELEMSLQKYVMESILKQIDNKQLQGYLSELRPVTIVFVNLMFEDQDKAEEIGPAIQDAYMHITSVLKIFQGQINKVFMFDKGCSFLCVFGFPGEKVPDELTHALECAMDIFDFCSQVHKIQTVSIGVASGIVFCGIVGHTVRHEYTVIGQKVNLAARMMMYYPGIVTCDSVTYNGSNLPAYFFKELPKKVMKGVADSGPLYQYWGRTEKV
TEST_PROTOCOL: in vitro adenylyl cyclase assay with purified human sAC protein (cAMP by Correlate-EIA)
Type: biochemical
CONDITION_SET: stimulated activity of human sAC in vitro (calcium and bicarbonate stimulated); read-out: hsACt-Stim. approximate IC50 (or the dose range where the IC50 should lie)
MEASURED_QUANTITY: IC50

Some compounds with recorded IC50:
>>> print(df.to_string())
                                   compound                                    system  measured_quantity        result
0  O=C(CSc1nc2ccccc2[nH]1)N/N=C/c1ccccc1Br [KH7.131]  human sAC (Homo sapiens, UniProt Q96PN6)               IC50  10 to 100 µM
1  Cc1ccc(Cn2c(SCC(=O)N/N=C/c3ccncc3)nc3ccccc32)cc1 [KH7.142]  human sAC (Homo sapiens, UniProt Q96PN6)               IC50    1 to 10 µM
2  COc1cc(/C=N/NC(=O)CSc2nc3ccccc3[nH]2)cc(OC)c1OC(C)=O [KH7.124]  human sAC (Homo sapiens, UniProt Q96PN6)               IC50      > 100 µM

Kindly consider the entry below.
Response field IC50 (human sAC (Homo sapiens, UniProt Q96PN6)) for item O=C(CSc1nc2ccccc2[nH]1)N/N=C/c1cccnc1 [KH7.123] : > 100 µM

* * *

SYSTEM: human sAC (Homo sapiens, UniProt Q96PN6)
Construct: made in house
TEST_PROTOCOL: in vitro adenylyl cyclase assay with purified human sAC protein (cAMP by Correlate-EIA)
Type: biochemical
CONDITION_SET: 100 μM of compound; stimulated human sAC in vitro activity; read-out: % Inhibition (100 μM), hsACt-Stim.
MEASURED_QUANTITY: inhibition at 100 µM (%)

Some molecules with recorded inhibition at 100 µM:
>>> df
                               smiles_entry     measured_quantity  numeric_value
0  COc1cc(/C(C)=N\NC(=O)CSc2nc3ccccc3[nH]2)ccc1O  inhibition at 100 µM              0
1   O=C(CSc1nc2ccccc2[nH]1)N/N=C/c1ccccc1Br  inhibition at 100 µM             60
2  O=C(CSc1nc2ccccc2[nH]1)N/N=C/c1ccc([N+](=O)[O-])cc1  inhibition at 100 µM             50
3  O=C(CSc1nc2ccccc2[nH]1)N/N=C/c1cc([N+](=O)[O-])ccc1Cl  inhibition at 100 µM              0

P = O=C(CSc1nc2ccccc2[nH]1)NCCc1ccccc1
Q = O=C(CSc1nc2ccccc2[nH]1)N/N=C/c1ccc(Cl)c([N+](=O)[O-])c1
Please indicate which has the smaller reported inhibition at 100 µM: P , or Q . // respond with label for picked entry
P

* * *

SYSTEM: human sAC (Homo sapiens)
Construct: made in house
TEST_PROTOCOL: in vitro adenylyl cyclase assay with purified human sAC protein (cAMP by Correlate-EIA)
Assay type: biochemical
CONDITION_SET: 100 μM of compound; stimulated human sAC in vitro activity; read-out: % Inhibition (100 μM), hsACt-Stim.
MEASURED_QUANTITY: inhibition at 100 µM (%)

>>> print(df.to_string())
                               smiles_entry  numeric_value
0  O=C(CSc1nc2ccccc2[nH]1)N/N=C/c1cc(I)cc(I)c1O             85

P = C/C(=N\NC(=O)CSc1nc2ccccc2[nH]1)c1ccc(Cl)cc1
Q = C/C(=N/NC(=O)CSc1nc2ccccc2[nH]1)c1ccc(F)cc1
When P and Q are compared, which has the higher number for inhibition at 100 µM? // respond with label for picked entry
P

* * *

SYSTEM: human sAC (Homo sapiens, UniProt Q96PN6)
Construct: made in house
TEST_PROTOCOL: in vitro adenylyl cyclase assay with purified human sAC protein (cAMP by Correlate-EIA)
Format: biochemical
CONDITION_SET: 100 μM of compound; BASAL human sAC in vitro activity; read-out: % Inhibition (100 μM), hsACt-Basal
MEASURED_QUANTITY: inhibition at 100 µM (%)

>>> df
                                   compound     measured_quantity  scale_unit  numeric_value
0  O=C(CSc1nc2ccccc2[nH]1)N/N=C/c1cccc(Cl)c1 [KH7.128]  inhibition at 100 µM           %             50
1  O=C(CSc1nc2ccccc2[nH]1)N/N=C/c1ccccc1Br [KH7.131]  inhibition at 100 µM           %             60
2  COc1ccc(C2=NN(C(=O)CSc3nc4ccccc4[nH]3)C(c3ccc(F)cc3)C2)cc1 (stereo not drawn) [KH7.120]  inhibition at 100 µM           %             90

* * *

SYSTEM: human sAC (Homo sapiens, UniProt Q96PN6)
Construct: made in house
TEST_PROTOCOL: in vitro adenylyl cyclase assay with purified human sAC protein (cAMP by Correlate-EIA)
Assay type: biochemical
CONDITION_SET: BASAL activity of human sAC in vitro (just Mg-ATP, no calcium or bicarbonate); read-out: hsACt-Basal approximate IC50 (or the dose range where the IC50 should lie)
Parameter: IC50. Scope: all listed entries.

Record O=C(CSc1nc2ccccc2[nH]1)N/N=C/c1cc(Br)ccc1O , field IC50: 10 to 100 µM

Record O=C(CSc1nc2ccccc2[nH]1)N/N=C/c1ccc(Cl)cc1 , field IC50: > 100 µM

Record O=C(CSc1nc2ccccc2[nH]1)N/N=C/c1ccc(O)c(O)c1 , field IC50: 10 to 100 µM

Record Cc1ccc(Cn2c(SCC(=O)N/N=C/c3ccncc3)nc3ccccc32)cc1 , field IC50: > 100 µM

Record Cc1ccc(Cn2c(SCC(=O)N/N=C/c3cc(Br)ccc3O)nc3ccccc32)cc1 , field IC50: 1 µM

Record O=C(CSc1nc2ccccc2[nH]1)N/N=C/c1cccc2ccccc12 , field IC50: > 100 µM

* * *

SYSTEM: human sAC (Homo sapiens)
Construct: made in house
TEST_PROTOCOL: in vitro adenylyl cyclase assay with purified human sAC protein (cAMP by Correlate-EIA)
Assay type: biochemical
CONDITION_SET: 100 μM of compound; BASAL human sAC in vitro activity; read-out: % Inhibition (100 μM), hsACt-Basal
MEASURED_QUANTITY: inhibition at 100 µM (%)

Some molecules with recorded inhibition at 100 µM:
In [3]: df
Out[3]:
                               smiles_entry  numeric_value
0  C/C(=N/NC(=O)CSc1nc2ccccc2[nH]1)c1ccc(-c2ccccc2)cc1             80
1  C/C(=N\NC(=O)CSc1nc2ccccc2[nH]1)c1ccc(Br)cc1             95
2  O=C(CSc1nc2ccccc2[nH]1)N/N=C/c1ccc(Cl)cc1              0

A = C/C(=N/NC(=O)CSc1nc2ccccc2[nH]1)c1ccncc1
B = C/C(=N/NC(=O)CSc1nc2ccccc2[nH]1)c1ccc(Cl)c(Cl)c1
Please indicate which has the smaller reported inhibition at 100 µM: A , or B . // respond with label for picked entry
A
(A: 0%, B: 80%)

* * *

SYSTEM: human sAC (Homo sapiens)
Construct: made in house
TEST_PROTOCOL: in vitro adenylyl cyclase assay with purified human sAC protein (cAMP by Correlate-EIA)
Format: biochemical
CONDITION_SET: stimulated activity of human sAC in vitro (calcium and bicarbonate stimulated); read-out: hsACt-Stim. approximate IC50 (or the dose range where the IC50 should lie)
Parameter: IC50. Scope: all listed entries.

Record Cc1ccc(/C=N/NC(=O)CSc2nc3ccccc3[nH]2)cc1 , field IC50: > 100 µM

* * *

SYSTEM: human sAC (Homo sapiens, UniProt Q96PN6)
Construct: made in house
TEST_PROTOCOL: in vitro adenylyl cyclase assay with purified human sAC protein (cAMP by Correlate-EIA)
Assay type: biochemical
CONDITION_SET: 100 μM of compound; stimulated human sAC in vitro activity; read-out: % Inhibition (100 μM), hsACt-Stim.
MEASURED_QUANTITY: inhibition at 100 µM (%)

Some molecules with recorded inhibition at 100 µM:
                                   molecule  numeric_value
0  O=C(CSc1nc2ccccc2[nH]1)N/N=C/c1ccc(C(F)(F)F)cc1 [KH7.150]              0
1  O=C(CSc1nc2ccccc2[nH]1)N/N=C/c1ccccc1I [KH7.121]             90
2  C/C(=N/NC(=O)CSc1nc2ccccc2[nH]1)c1ccc(-c2ccccc2)cc1 [KH7.113]             80
3  C/C(=N\NC(=O)CSc1nc2ccccc2[nH]1)c1ccco1 [KH7.109]              0
4  Cn1c(SCC(=O)N/N=C/c2ccccn2)nc2ccccc21 [KH7.140]              0

I = C/C(=N\NC(=O)CSc1nc2ccccc2[nH]1)c1ccc(Br)cc1 [KH7.107]
II = CCN(CC)c1ccc(/C=N/NC(=O)CSc2nc3ccccc3[nH]2)cc1 [KH7.136]
III = O=C(CSc1nc2ccccc2[nH]1)N/N=C/c1ccccc1C(=O)O [KH7.112]
Kindly order the items shown according to inhibition at 100 µM, from the highest value down. As an answer, provide the labels arranged in the order called for.
I, II, III
(I: 95%, II: 40%, III: 0%)

P = O=C(CSc1nc2ccccc2[nH]1)N/N=C/c1cccc(Br)c1 [KH7.104]
Q = C/C(=N/NC(=O)CSc1nc2ccccc2[nH]1)c1ccncc1 [KH7.117]
R = O=C(CSc1nc2ccccc2[nH]1)N/N=C/c1c(Cl)cccc1Cl [KH7.130]
Kindly order the items shown according to inhibition at 100 µM, from the highest value down. As an answer, provide the labels arranged in the order called for.
P, R, Q
(P: 85%, R: 50%, Q: 0%)
